STUDY SYSTEM: human SGLT1 (Homo sapiens, UniProt P13866)
ASSAY REMARKS: SGLT1 assay: Na-dependent 14C-AMG uptake in CHO-K1 cells stably expressing human SGLT1
CONDITIONS: 500 μM AMG, 2 hours at 37° C.
Field 'label' (enum: YES / NO). Set to YES when IC50 is strictly under 60 nM; else NO.

Record excerpt, results attached:
[
  {
    "MOLECULE": "CCOc1cc(Cl)c(Cc2ccc3c(c2)CC3)cc1[C@@H]1O[C@H](CO)[C@@H](F)[C@H](O)[C@H]1O [Compound 132]",
    "CLASS NAME": "YES"
  },
  {
    "MOLECULE": "Cc1ccc([C@@H]2O[C@H](CO)[C@@H](F)[C@H](O)[C@H]2O)cc1C(F)(F)c1ccc2c(c1)CC2 [Compound 142]",
    "CLASS NAME": "NO"
  },
  {
    "MOLECULE": "Cc1c(Cc2ccc3c(c2)CC3)cc([C@@H]2O[C@H](CO)[C@@H](O)[C@H](O)[C@H]2O)c(O)c1I [Compound 120]",
    "CLASS NAME": "YES"
  },
  {
    "MOLECULE": "[2H]C([2H])(c1ccc2c(c1)CC2)c1cc([C@@H]2O[C@H](CO)[C@@H](O)[C@H](O)[C@H]2O)ccc1Cl (single isomer, unassigned) [Compound 54]",
    "CLASS NAME": "NO"
  }
]

# check: IC50 < 60 nM for COc1cc(Cl)c(Cc2ccc3c(c2)CC3)cc1[C@@H]1O[C@H](CO)[C@@H](F)[C@H](O)[C@H]1O [Compound 133]
YES

# check: IC50 < 60 nM for [2H]C([2H])(c1ccc2c(c1)CC2)c1cc([C@@H]2O[C@H](CO)[C@@H](O)[C@H](O)[C@H]2O)ccc1C [Compound 51]
YES

* * *

STUDY SYSTEM: human SGLT2 (Homo sapiens, UniProt P31639)
Sequence (P31639 whole entry): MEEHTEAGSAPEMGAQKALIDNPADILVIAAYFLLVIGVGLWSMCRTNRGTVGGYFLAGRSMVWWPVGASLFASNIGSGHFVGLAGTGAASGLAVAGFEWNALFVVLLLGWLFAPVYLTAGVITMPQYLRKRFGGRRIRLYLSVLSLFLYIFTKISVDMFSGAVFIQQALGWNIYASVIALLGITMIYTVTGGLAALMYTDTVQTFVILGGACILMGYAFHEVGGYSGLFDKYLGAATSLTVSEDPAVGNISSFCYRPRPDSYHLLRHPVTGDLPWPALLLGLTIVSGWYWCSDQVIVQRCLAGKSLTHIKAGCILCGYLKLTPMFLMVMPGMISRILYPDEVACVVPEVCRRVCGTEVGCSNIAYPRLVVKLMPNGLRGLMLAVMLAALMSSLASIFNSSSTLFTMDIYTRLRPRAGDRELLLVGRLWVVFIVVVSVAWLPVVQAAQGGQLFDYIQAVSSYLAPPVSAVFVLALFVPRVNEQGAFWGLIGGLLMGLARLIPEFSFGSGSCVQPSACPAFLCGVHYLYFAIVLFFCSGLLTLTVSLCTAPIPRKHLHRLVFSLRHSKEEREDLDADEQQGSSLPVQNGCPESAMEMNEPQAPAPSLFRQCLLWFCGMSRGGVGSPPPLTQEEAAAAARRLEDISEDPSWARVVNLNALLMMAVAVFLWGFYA
ASSAY REMARKS: SGLT2 assay: Na-dependent 14C-AMG uptake in CHO-K1 cells stably expressing human SGLT2
CONDITIONS: 500 μM AMG, 2 hours at 37° C.
OBSERVED PROPERTY: IC50 (nM)
Could you give me the number in nM? Just the number is fine.

Examples from the recorded data:
[
  {
    "COMPOUND": "[2H]C1([2H])Cc2ccc(Cc3cc([C@@H]4O[C@H](CO)[C@@H](O)[C@H](O)[C@H]4O)c(OC)cc3CC)cc21 [Compound 69]",
    "UNIT TEXT": "nM",
    "IC50": 5
  },
  {
    "COMPOUND": "[2H]C([2H])(c1ccc2c(c1)CC2)c1cc([C@@H]2O[C@H](CO)[C@@H](O)[C@H](O)[C@H]2O)c(OC)cc1C [Compound 53]",
    "UNIT TEXT": "nM",
    "IC50": 1
  }
]

What reported IC50 corresponds to OC[C@H]1O[C@@H](c2cc(Cc3ccc4c(c3)CC4)c(Cl)cc2O)[C@H](O)[C@@H](O)C1(F)F [Compound 102] on human SGLT2 (Homo sapiens, UniProt P31639)?
2

What reported IC50 corresponds to [2H]C1([2H])Cc2ccc(Cc3cc([C@@H]4O[C@H](CO)[C@@H](O)[C@H](O)[C@H]4O)c(OC)cc3OC)cc21 (single isomer, unassigned) [Compound 68] on human SGLT2 (Homo sapiens, UniProt P31639)?
2

What reported IC50 corresponds to CCOc1cc(OC)c(Cc2ccc3c(c2)CC3)cc1[C@@H]1O[C@H](CO)[C@@H](O)[C@H](O)[C@H]1O [Compound 114] on human SGLT2 (Homo sapiens, UniProt P31639)?
2

What reported IC50 corresponds to [2H]C1([2H])Cc2ccc(Cc3cc([C@@H]4O[C@H](CO)[C@@H](O)[C@H](O)[C@H]4O)c(F)cc3C3CC3)cc21 [Compound 74] on human SGLT2 (Homo sapiens, UniProt P31639)?
10

* * *

STUDY SYSTEM: human SGLT1 (Homo sapiens, UniProt P13866)
Sequence (P13866 1-664): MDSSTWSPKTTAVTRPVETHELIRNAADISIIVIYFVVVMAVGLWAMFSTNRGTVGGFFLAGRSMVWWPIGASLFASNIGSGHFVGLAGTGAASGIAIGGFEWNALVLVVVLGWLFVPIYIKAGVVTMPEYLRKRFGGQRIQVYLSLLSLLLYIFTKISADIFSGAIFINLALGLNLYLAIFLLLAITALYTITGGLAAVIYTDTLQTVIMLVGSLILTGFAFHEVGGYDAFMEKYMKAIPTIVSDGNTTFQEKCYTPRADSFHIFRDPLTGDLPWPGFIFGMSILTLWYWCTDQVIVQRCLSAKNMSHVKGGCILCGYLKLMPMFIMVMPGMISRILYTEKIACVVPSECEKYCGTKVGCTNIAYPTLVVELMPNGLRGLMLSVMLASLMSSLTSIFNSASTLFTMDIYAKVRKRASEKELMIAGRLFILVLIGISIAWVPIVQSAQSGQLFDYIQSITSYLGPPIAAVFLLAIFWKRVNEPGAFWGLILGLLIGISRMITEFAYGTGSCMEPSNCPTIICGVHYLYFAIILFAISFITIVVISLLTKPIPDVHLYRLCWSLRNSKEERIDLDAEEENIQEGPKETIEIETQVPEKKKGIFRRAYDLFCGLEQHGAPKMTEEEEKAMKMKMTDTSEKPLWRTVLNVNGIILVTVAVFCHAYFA
ASSAY REMARKS: SGLT1 assay: Na-dependent 14C-AMG uptake in CHO-K1 cells stably expressing human SGLT1
CONDITIONS: 500 μM AMG, 2 hours at 37° C.
OBSERVED PROPERTY: IC50 (µM)
Could you give me the number in µM? Just the number is fine.

[
  {
    "COMPOUND": "COc1cc(O)c([C@@H]2O[C@H](CO)[C@@H](F)[C@H](O)[C@H]2O)cc1Cc1ccc2c(c1)CC2",
    "IC50 / µM": 0.003
  },
  {
    "COMPOUND": "[2H]C1([2H])c2ccc(Cc3cc([C@@H]4O[C@H](CO)[C@@H](O)[C@H](O)[C@H]4O)ccc3Cl)cc2C1([2H])[2H]",
    "IC50 / µM": 0.08
  },
  {
    "COMPOUND": "Cc1ccc([C@@H]2O[C@H](CO)[C@@H](O)[C@H](O)[C@H]2O)cc1Cc1ccc2c(c1)CC2",
    "IC50 / µM": 0.033
  },
  {
    "COMPOUND": "[2H]C1([2H])Cc2ccc(Cc3cc([C@@H]4O[C@H](CO)[C@@H](O)[C@H](O)[C@H]4O)c(F)cc3CC)cc21",
    "IC50 / µM": 0.016
  },
  {
    "COMPOUND": "Cc1cc(O)c([C@@H]2O[C@H](CO)[C@@H](F)[C@H](O)[C@H]2O)cc1Cc1ccc2c(c1)CC2",
    "IC50 / µM": 0.015
  }
]

Sample `CN(C)c1cc(O)c([C@@H]2O[C@H](CO)[C@@H](O)[C@H](O)[C@H]2O)cc1Cc1ccc2c(c1)CC2` — what was its IC50?
0.012

Sample `[2H]C([2H])(c1ccc2c(c1)CC2)c1cc([C@@H]2O[C@H](CO)[C@@H](O)[C@H](O)[C@H]2O)c(O)cc1Cl` — what was its IC50?
0.007

Sample `OC[C@H]1O[C@@H](c2cc(Cc3ccc4c(c3)CC4)c(Cl)cc2O)[C@H](O)[C@@H](O)C1(F)F` — what was its IC50?
0.012

Sample `COc1cc(OC)c([C@@H]2O[C@H](CO)[C@@H](F)[C@H](O)[C@H]2O)cc1Cc1ccc2c(c1)CC2` — what was its IC50?
0.009

Sample `Cc1ccc([C@@H]2O[C@H](CO)C(F)(F)[C@H](O)[C@H]2O)cc1Cc1ccc2c(c1)CC2` — what was its IC50?
0.049

* * *

STUDY SYSTEM: human SGLT2 (Homo sapiens, UniProt P31639)
ASSAY REMARKS: SGLT2 assay: Na-dependent 14C-AMG uptake in CHO-K1 cells stably expressing human SGLT2
CONDITIONS: 500 μM AMG, 2 hours at 37° C.
IC50 by entry:
Could you give me the number in nM? Just the number is fine.

Examples from the recorded data:
[
  {
    "COMPOUND": "COc1cc(Cl)c(Cc2ccc3c(c2)CC3)cc1[C@@H]1O[C@H](CO)C(F)(F)[C@H](O)[C@H]1O",
    "IC50 (nM)": 2
  },
  {
    "COMPOUND": "[2H]C1([2H])Cc2ccc(Cc3cc([C@@H]4O[C@H](CO)[C@@H](O)[C@H](O)[C@H]4O)c(F)cc3CC)cc21",
    "IC50 (nM)": 3
  },
  {
    "COMPOUND": "Cc1ccc([C@@H]2O[C@H](CO)[C@@H](O)[C@H](O)[C@H]2O)cc1Cc1ccc2c(c1)CC2",
    "IC50 (nM)": 1
  },
  {
    "COMPOUND": "OC[C@H]1O[C@@H](c2cc(Cc3ccc4c(c3)CC4)c(C3CC3)cc2O)[C@H](O)[C@@H](O)[C@@H]1O",
    "IC50 (nM)": 6
  },
  {
    "COMPOUND": "[2H]C1([2H])Cc2cc(Cc3cc([C@@H]4O[C@H](CO)[C@@H](O)[C@H](O)[C@H]4O)ccc3Cl)ccc21 (single isomer, unassigned)",
    "IC50 (nM)": 1
  }
]

Read the next record carefully.
What reported IC50 corresponds to `[2H]C1([2H])c2ccc(Cc3cc([C@@H]4O[C@H](CO)[C@@H](O)[C@H](O)[C@H]4O)ccc3Cl)cc2C1([2H])[2H]` on human SGLT2 (Homo sapiens, UniProt P31639)?
1
